# System: K562/DOX cells
# Measurement Notes: Doxorubicin cytotoxicity enhancement assay (MTT)
# Type: cell-based, human
# Details: compound at 3 µM, 72 h
Cut-off 2 on RF (Reversal Fold: IC50 of doxorubicin alone / in presence of modulator): below means criterion met, at or above means criterion not met.

{"Query Smiles": "COc1cc(CN2CCN(CCOc3ccc4oc(=O)ccc4c3)CC2)cc(OC)c1OC", "Target": "K562/DOX cells", "Class Assignment": "criterion not met"}
{"Query Smiles": "COc1cc(CN2CCN(CCCOc3ccc4oc(=O)ccc4c3)CC2)cc(OC)c1OC", "Target": "K562/DOX cells", "Class Assignment": "criterion not met"}
{"Query Smiles": "COc1cc(/C=C/CN2CCN(CCCCOc3ccc4ccc(=O)oc4c3)CC2)cc(OC)c1OC", "Target": "K562/DOX cells", "Class Assignment": "criterion not met"}
{"Query Smiles": "COc1cc(/C=C/CN2CCN(CCOc3ccc4c(C)cc(=O)oc4c3)CC2)cc(OC)c1OC", "Target": "K562/DOX cells", "Class Assignment": "criterion not met"}
{"Query Smiles": "COc1cc(/C=C/CN2CCN(CCOc3ccc4oc(=O)ccc4c3)CC2)cc(OC)c1OC", "Target": "K562/DOX cells", "Class Assignment": "criterion met"}
{"Query Smiles": "COc1cc(/C=C/CN2CCN(CCCCOc3ccc4c(C)cc(=O)oc4c3)CC2)cc(OC)c1OC", "Target": "K562/DOX cells", "Class Assignment": "criterion not met"}
{"Query Smiles": "COc1ccc(C(CCCN2CCN(CCCOc3ccc4ccc(=O)oc4c3)CC2)c2ccc(OC)cc2)cc1", "Target": "K562/DOX cells", "Class Assignment": "criterion not met"}
{"Query Smiles": "COc1cc(/C=C/CN2CCN(CCCOc3ccc4c(C)cc(=O)oc4c3)CC2)cc(OC)c1OC", "Target": "K562/DOX cells", "Class Assignment": "criterion not met"}
{"Query Smiles": "COc1cc(CN2CCN(CCOc3ccc4c(C)cc(=O)oc4c3)CC2)cc(OC)c1OC", "Target": "K562/DOX cells", "Class Assignment": "criterion met"}
{"Query Smiles": "COc1cc(CN2CCN(CCCCOc3ccc4ccc(=O)oc4c3)CC2)cc(OC)c1OC", "Target": "K562/DOX cells", "Class Assignment": "criterion not met"}
{"Query Smiles": "COc1cc(CN2CCN(CCCCOc3ccc4oc(=O)cc(C)c4c3)CC2)cc(OC)c1OC", "Target": "K562/DOX cells", "Class Assignment": "criterion not met"}
